Each recorded value in this set is attributed to patent US20240270821A1.

We begin with a simple list: items and their reported EC50.
# System: hGLP-1R (Homo sapiens, UniProt P43220)
# Sequence (P43220 24-463): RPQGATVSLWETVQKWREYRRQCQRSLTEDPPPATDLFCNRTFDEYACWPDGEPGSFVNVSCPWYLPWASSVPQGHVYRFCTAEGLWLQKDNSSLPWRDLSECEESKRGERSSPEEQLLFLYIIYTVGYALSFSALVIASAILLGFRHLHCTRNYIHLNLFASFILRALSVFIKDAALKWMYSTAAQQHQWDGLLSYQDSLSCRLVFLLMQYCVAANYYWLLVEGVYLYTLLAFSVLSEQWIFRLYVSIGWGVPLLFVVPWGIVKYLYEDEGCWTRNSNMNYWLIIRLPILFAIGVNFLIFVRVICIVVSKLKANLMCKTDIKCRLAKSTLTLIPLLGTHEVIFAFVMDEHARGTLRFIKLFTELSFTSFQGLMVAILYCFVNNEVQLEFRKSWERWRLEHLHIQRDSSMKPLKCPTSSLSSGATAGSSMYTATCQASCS
# Method: Functional cAMP activation in the presence of 0.1% casein (no HSA);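 further: intracellular cAMP rise after 30 min at 37 °C read by HTRF, normalized between buffer only (0%) and maximal control ligand (100%), four-parameter variable-slope fit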
# Assay type: cell-based
# Condition label: in the presence of 0.1% casein (no HSA); geometric mean of relative EC50; read-out: Relative cAMP EC50, hGLP-1R
Starred links: 1 amine or outer side, 2 acyl side, 3 side chain; linkers in the order of their positions; H or OH if unused. Non-standard residues stand in square brackets, D forms with d. Groups on a side chain read outwards from the residue. No end group written: not given here. *: point of attachment. C18 diacid = O=C(O)CCCCCCCCCCCCCCCCC(=O)*; αMePhe(2-F) = C[C@](N)(Cc1ccccc1F)C(=O)O; γGlu = O=C(O)[C@H](CCC(=O)[*:2])N[*:1]; αMe4Pal = C[C@](N)(Cc1ccncc1)C(=O)O; αMeY = C[C@](N)(Cc1ccc(O)cc1)C(=O)O; 4Pal = N[C@@H](Cc1ccncc1)C(=O)O; αMeL = CC(C)C[C@](C)(N)C(=O)O; αMeS = C[C@](N)(CO)C(=O)O; Orn = NCCC[C@H](N)C(=O)O; AEEA = NCCOCCOCC(=O)O; Aib = CC(C)(N)C(=O)O

Here are 5 substances together with their reported answers.
Y[Aib]QGT[αMePhe(2-F)]TSD[4Pal]SI[αMeL]LD[Orn]K([AEEA-γGlu-C18 diacid])AQ[αMe4Pal][Orn]FI[dE][αMeY]LIEGGPSSGEPPPEGEG[dE]-NH2 [Example 692] | 0.252 nM
H-Y[Aib]QGT[αMePhe(2-F)]TSDYSI[αMeL]LDKK([AEEA-γGlu-C18 diacid])AQ[Aib]AFIEYLLETGPSSGAPPPSEG-NH2 [Example 417] | 0.328 nM
H-Y[Aib]QGT[αMePhe(2-F)]TSD[4Pal]SI[αMeL]LDKK([γGlu-γGlu-C18 diacid])AQ[Aib]AFIEYLEEGGPSSGEPPPSGSEE-NH2 [Example 630] | 0.762 nM
Y[Aib]QGT[αMePhe(2-F)]TSD[4Pal][αMeS]I[αMeL]LD[Orn]K([AEEA-γGlu-C18 diacid])AA[Aib]EFI[dE][αMeY]LIEGGPSSGEPPPSGTE-NH2 [Example 719] | 0.22 nM
H-Y[Aib]QGT[αMePhe(2-F)]TSD[4Pal]SI[αMeL]LDKK([γGlu-γGlu-C18 diacid])AQ[Aib][Orn]FIEYLAEGGPSSGEPPPEGSEE-NH2 [Example 650] | 0.649 nM

Problem: I have this substance here, H-Y[Aib]QGT[αMePhe(2-F)]TSD[4Pal]SI[αMeL]LDKK([γGlu-γGlu-C18 diacid])AQ[Aib][Orn]FIEYLSEGGPSSGEPPPSGSEE-NH2 [Example 637] , and I need its recorded EC50.
Solution: 1.08 nM

Problem: Now try Y[Aib]QGT[αMePhe(2-F)]TSD[4Pal][αMeS]ILLD[Orn]K([γGlu-γGlu-C18 diacid])AQ[Aib][Orn]FI[dE]YLIEGGPSSGEPPPSETE-NH2 [Example 555] .
Solution: 0.445 nM

Problem: Now try H-Y[Aib]QGT[αMePhe(2-F)]TSD[4Pal]SI[αMeL]LDKK([γGlu-γGlu-C18 diacid])AQ[Aib][Orn]FIEYLAEGGPSSGEPPPSGSEE-NH2 [Example 636] .
Solution: 0.504 nM

Problem: Now try H-Y[Aib]QGT[αMePhe(2-F)]TSD[4Pal]SI[αMeL]LDKK([γGlu-γGlu-C18 diacid])AQ[Aib]AFIEYLTEGGPSSGEPPPSGSEE-NH2 [Example 633] .
Solution: 0.421 nM

Problem: Now try H-Y[Aib]QGT[αMePhe(2-F)]TSD[4Pal]SI[αMeL]LDKK([γGlu-γGlu-C18 diacid])AQ[Aib][Orn]FIEYLSEGGPSSGEPPPEGSEE-NH2 [Example 651] .
Solution: 1.02 nM

Problem: Now try H-Y[Aib]QGT[αMePhe(2-F)]TSD[4Pal]SI[αMeL]LDKK([γGlu-γGlu-C18 diacid])AQ[Aib][Orn]FIEYLEEGGPSSGEPPPSGSEE-NH2 [Example 635] .
Solution: 0.625 nM

Problem: Now try H-Y[Aib]QGT[αMePhe(2-F)]TSD[4Pal]SI[αMeL]LDKK([γGlu-γGlu-C18 diacid])AQ[Aib][Orn]FIEYLTEGGPSSGEPPPEGSEE-NH2 [Example 652] .
Solution: 0.426 nM
